The origin of these recorded values is ChEMBL document CHEMBL1139418.

- System: Mus musculus
- assay.name: Induction of convulsion in intracerebroventricular dosed mouse
- Type: organism-based
- study.conditions: in vivo, icv_or_intrathecal
assay.readout: ED50 (µg)
Report only the number, with the unit µg understood.

CC(C)(O/N=C(\C(=O)N[C@@H]1C(=O)N2C(C(=O)[O-])=C(C[n+]3ccc(N)n3CCO)CS[C@H]12)c1nsc(N)n1)C(=O)O.Cl 46.9
CO/N=C(/C(=O)N[C@@H]1C(=O)N2C(C(=O)[O-])=C(C[n+]3ccn4ncccc43)CS[C@H]12)c1nsc(N)n1 230
Cn1c(N)c(NC(=O)NCCN)c[n+]1CC1=C(C(=O)O)N2C(=O)[C@@H](NC(=O)/C(=N\OC(C)(C)C(=O)[O-])c3nsc(N)n3)[C@H]2SC1 428

We next turn to a different compound, shown below.
Measured ED50, Cn1c(N)c(CN)c[n+]1CC1=C(C(=O)[O-])N2C(=O)[C@@H](NC(=O)/C(=N\OC(C)(C)C(=O)O)c3nsc(N)n3)[C@H]2SC1 : 39.3
